Reported pKd by item:
# TARGET OR SYSTEM: human insulin receptor (HIR) (human, UniProt P06213 28-1382, limits assumed)
# EXPERIMENT DESCRIPTION: competition with 125I-insulin, solubilised HIR
Here pKd is given on a logarithmic scale as minus log10 of the concentration in mol/L.

BINDER: HHHHHHKLDQEWAWVQCEVYGRGCPSESFYDWFERQLG [S481]
pKd: 8.89
--
BINDER: SIEEEWAQIKCDVWGRGCPSY [S593]
pKd: 8.66
--
BINDER: SLEEEWAQIECEVWGRGCPSGSLDESFYDWFERQL [S560]
pKd: 10.85
--
BINDER: SLEEEWAQIECEVWGRGCSGSLDESFYDWFERQL [S561]
pKd: 10.74
--
BINDER: SIEEEWAQIKCDVWGRGCPSESFYDWFERQL [S517]
pKd: 11.22
--
BINDER: SLEEEWAQIQHELYGPAESESFYDWFERQL [S596]
pKd: 10.35

response.value for GSLDESFYDWFERQLGXK (as printed: Ac-GSLDESFYDWFERQLG-POX-K; N-terminal acetyl; POX between G and the C-terminal K, POX is not explained) [S550] (field: pKd) = 7.40
